- Test system: Marburg virus (MARV)
- assay_info: organism not typed
- Type: cell-based
- measurement_setup: Vero, 72 h, read-out: Percent viral inhibition MARV
# inhibition at 1 µM per entry
Give the quantity in %, number only.

> print(dat)
                                    molecule  measured.parameter  reported.result
 1  COC(=O)NCC1CCN(Cc2cc(Oc3cnc(N4CCN(CCC(=O)O)CC4)nc3)nc(-c3cc(Cl)cc(Cl)c3)c2)CC1 [Example 62]  inhibition at 1 µM             19.9
 2  CC1(C)CN(c2ncc(Oc3cc(CN4CCC(CC(=O)O)CC4)cc(-c4cc(Cl)cc(Cl)c4)n3)cn2)CCN1 [Example 160]  inhibition at 1 µM             35.1
 3  COC(=O)NCC1CCN(Cc2cc(Oc3cnc(N4CCN(C(C)CCC(=O)O)CC4)nc3)nc(-c3cc(Cl)cc(Cl)c3)c2)CC1 (stereo not drawn) [Example 222]  inhibition at 1 µM               60
 4  CN1CCN(c2ccc(Oc3cc(CN4CC[C@@H]5[C@H](CC4)[C@H]5C(=O)O)cc(-c4cc(Cl)cc(Cl)c4)n3)cn2)CC1 [Example 136]  inhibition at 1 µM             57.8
 5  O=C(O)CC1CCN(Cc2cc(Oc3ccc(N4CCCNCC4)nc3)nc(-c3cc(Cl)cc(Cl)c3)c2)CC1 [Example 166]  inhibition at 1 µM               45
 6  CNC(=O)OCC1CCN(Cc2cc(Oc3cnc(N4CCN(CCCS(C)(=O)=O)CC4)nc3)nc(-c3cc(Cl)cc(Cl)c3)c2)CC1 [Example 210]  inhibition at 1 µM             32.6
 7  NCCNc1ccc(Oc2cc(CN3CCOCC3)cc(-c3cc(Cl)cc(Cl)c3)c2)cn1 [Example 99]  inhibition at 1 µM                0
 8  CC(=O)NCC1CCN(Cc2cc(Oc3ccc(N4CCC5(CCNC5)C4)nc3)nc(-c3cc(Cl)cc(Cl)c3)c2)CC1 (stereo not drawn) [Example 199]  inhibition at 1 µM             18.5
 9  CC(=O)NCC1CCN(Cc2cc(Oc3cnc(N4CCN(CCC(=O)O)CC4)c(F)c3)nc(-c3cc(Cl)cc(Cl)c3)c2)CC1 [Example 266]  inhibition at 1 µM             56.3
10  CN1CCN(c2ncc(Oc3cc(CN4CCC(CCS(N)(=O)=O)CC4)cc(-c4cc(Cl)cc(Cl)c4)n3)cn2)CC1 [Example 87]  inhibition at 1 µM             30.3

query: If you can, please state the reported inhibition at 1 µM value of CN1C2CC1CN(c1ncc(Oc3cc(CN4CCC(CC(=O)O)CC4)cc(-c4cc(Cl)cc(Cl)c4)n3)cn1)C2 [Example 228] .
result: 36.2

* * *

# inhibition at 1 µM per entry
- Test system: Chikungunya virus (CHIKV)
- assay_info: microbe, parasite or virus in culture
- Format: cell-based
- measurement_setup: Chikungunya virus, Vero, 48 h, read-out: Percent viral inhibition CHKV
Give the quantity in %, number only.

query: If you can, please state the reported inhibition at 1 µM value of NS(=O)(=O)CCC1CCN(Cc2cc(Oc3ccc(N4CCN(CCC(=O)O)CC4)nc3)nc(-c3cc(Cl)cc(Cl)c3)c2)CC1 .
result: 11.7

query: Likewise for CC(=O)NCC1(O)CCN(Cc2cc(Oc3ccc(N4CCNCC4)nc3)nc(-c3cc(Cl)cc(Cl)c3)c2)CC1 ?
result: 33.8

query: Likewise for O=C(O)CC1CCN(Cc2cc(Oc3cnc(N4CC5CCC(C4)N5)nc3)nc(-c3cc(Cl)cc(Cl)c3)c2)CC1 ?
result: 22

query: Likewise for CC(=O)NCC1CCN(Cc2cc(Oc3cnc(N4CCN(CCC(N)=O)CC4)cn3)nc(-c3cc(Cl)cc(Cl)c3)c2)CC1 ?
result: 14

query: Likewise for CN1CC2CN(c3ncc(Oc4cc(CN5CCC(CC(=O)O)CC5)cc(-c5cc(Cl)cc(Cl)c5)n4)cn3)CC2C1 (stereo not shown) ?
result: 43.4

query: Likewise for O=C(O)CC1CCN(Cc2cc(Oc3ccc(N4CCN5CCC4C5)nn3)nc(-c3cc(Cl)cc(Cl)c3)c2)CC1 (stereo not shown) ?
result: 26.6

query: Likewise for CNC(=O)OCC1CCN(Cc2cc(Oc3cnc(N4CCN(C)CC4)nc3)nc(-c3cc(Cl)cc(Cl)c3)c2)CC1 ?
result: 7.64

query: Likewise for CCC(=O)NCC1CCN(Cc2cc(Oc3cnc(N4CCN(CCC(C)C(=O)O)CC4)cn3)nc(-c3cc(Cl)cc(Cl)c3)c2)CC1 (stereo not shown) ?
result: 15.8

query: Likewise for O=C(O)CC1CCN(Cc2cc(Oc3cnc(N4CCN(CC(O)CO)CC4)nc3)nc(-c3cc(Cl)cc(Cl)c3)c2)CC1 (stereo not shown) ?
result: 14.3

query: Likewise for CCOC(=O)NCC1CCN(Cc2cc(Oc3cnc(N4CCN(CCC(=O)O)CC4)nc3)nc(-c3cc(Cl)cc(Cl)c3)c2)CC1 ?
result: 34.6
